Reference source: ChEMBL document CHEMBL1201862

Provide the recorded IC50 for the entries that follow.
# subjectOfTest: Sentrin-specific protease 8 (Homo sapiens, UniProt Q96LD8)
# Sequence (Q96LD8 whole entry): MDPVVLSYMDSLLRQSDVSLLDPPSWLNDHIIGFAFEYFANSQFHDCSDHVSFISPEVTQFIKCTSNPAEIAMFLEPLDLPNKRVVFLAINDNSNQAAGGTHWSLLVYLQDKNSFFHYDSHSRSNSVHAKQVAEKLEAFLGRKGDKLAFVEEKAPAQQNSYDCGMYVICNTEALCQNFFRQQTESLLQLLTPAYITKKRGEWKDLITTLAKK
# Format: functional
Calls of active or inactive are those of the source.

Report IC50 for each item below.
1. O=C1CCCC2=C1C1(O)C(=O)c3ccccc3C1(O)O2 (stereo not drawn)
2. CCn1cc(/C=C/C(=O)Nc2ccn(Cc3c(F)c(F)cc(F)c3F)n2)cn1

["6.65 µM (active)", "9.64 µM (active)"]

Report IC50 for each item below.
1. CCOC(=O)c1ccc(NC(=O)CN2CCc3ccccc3C2)cc1
2. COc1cc(NCCCNC(C)C)c2nccc(C)c2c1
3. COc1cc(OC)c([N+](=O)[O-])cc1/C=N/NC(=O)c1ccncc1
4. CCC(CC)C(=O)N(C)c1c(C)nc2c(OCC=C(C)C)cccn12
5. COc1ccc(C(=O)c2c3ccc([N+](=O)[O-])cc3[n+]([O-])n2CCCN)cc1
6. C[N+]1(C)CCC(=C2c3ccccc3CC(=O)c3sccc32)CC1

["21.6 µM (active)", "1.09 µM (active)", "9.81 µM (active)", "33.4 µM (active)", "9.21 µM (active)", "12.6 µM (active)"]

----------
# subjectOfTest: Apoptotic protease-activating factor 1 (Homo sapiens)
# Sequence (O14727 whole entry): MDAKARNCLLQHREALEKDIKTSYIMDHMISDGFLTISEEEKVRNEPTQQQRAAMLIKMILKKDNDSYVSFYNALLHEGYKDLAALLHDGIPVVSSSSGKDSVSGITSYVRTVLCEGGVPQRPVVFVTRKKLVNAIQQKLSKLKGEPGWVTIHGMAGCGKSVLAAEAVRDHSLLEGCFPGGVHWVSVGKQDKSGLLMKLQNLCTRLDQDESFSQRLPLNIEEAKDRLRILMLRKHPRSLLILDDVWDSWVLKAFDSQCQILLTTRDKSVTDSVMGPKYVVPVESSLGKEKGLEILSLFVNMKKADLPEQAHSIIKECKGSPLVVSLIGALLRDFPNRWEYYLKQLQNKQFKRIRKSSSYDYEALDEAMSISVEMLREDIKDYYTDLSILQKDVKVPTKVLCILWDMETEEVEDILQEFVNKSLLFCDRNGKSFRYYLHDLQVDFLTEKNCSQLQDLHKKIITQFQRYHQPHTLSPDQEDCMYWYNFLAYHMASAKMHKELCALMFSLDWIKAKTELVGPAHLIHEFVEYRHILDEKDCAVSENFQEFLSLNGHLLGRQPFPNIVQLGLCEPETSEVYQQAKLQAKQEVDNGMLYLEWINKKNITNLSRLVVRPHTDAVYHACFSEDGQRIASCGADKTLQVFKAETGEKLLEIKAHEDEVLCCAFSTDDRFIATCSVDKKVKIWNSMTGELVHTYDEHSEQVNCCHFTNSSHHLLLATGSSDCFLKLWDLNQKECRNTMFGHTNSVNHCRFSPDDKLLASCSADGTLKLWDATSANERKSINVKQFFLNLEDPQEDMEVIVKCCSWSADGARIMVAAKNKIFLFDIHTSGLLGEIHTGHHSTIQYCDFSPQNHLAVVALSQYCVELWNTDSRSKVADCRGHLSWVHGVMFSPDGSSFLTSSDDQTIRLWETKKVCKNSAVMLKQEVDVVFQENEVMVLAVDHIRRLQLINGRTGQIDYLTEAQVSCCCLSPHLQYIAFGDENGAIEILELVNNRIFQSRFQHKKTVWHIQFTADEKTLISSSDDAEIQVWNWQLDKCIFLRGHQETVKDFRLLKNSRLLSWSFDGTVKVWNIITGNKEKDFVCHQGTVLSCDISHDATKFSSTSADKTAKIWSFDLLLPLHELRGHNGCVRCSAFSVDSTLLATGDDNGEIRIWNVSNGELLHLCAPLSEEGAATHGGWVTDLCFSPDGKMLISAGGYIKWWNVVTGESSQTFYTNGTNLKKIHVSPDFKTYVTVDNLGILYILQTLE
# Format: functional
The source made the active and inactive calls.
Respond with a class label; see yes (1) (active), no (0) (inactive)

// below: answered molecules
COCCN(Cc1ccccc1)C(=O)c1cccc(S(=O)(=O)N2CCN(c3ccccc3)CC2)c1: no (0)
O=C1C(Cl)=C(NCCN2CCCCC2)C(=O)c2ccccc21: yes (1)

What classification did COc1ccc(C(=O)Nc2nc3c(s2)Cc2cc(OC)ccc2-3)cc1 end up with in this test?
yes (1)

What classification did O=C1CCCC2=C1C1(O)C(=O)c3ccccc3C1(O)O2 (stereo not given) end up with in this test?
yes (1)

What classification did CCN1/C(=C/c2ccc3cc(C)ccc3[n+]2CC)Sc2cc(C)c(C)cc21 end up with in this test?
yes (1)

----------
# subjectOfTest: Sentrin-specific protease 6 (Homo sapiens, UniProt Q9GZR1)
# Sequence (Q9GZR1 whole entry): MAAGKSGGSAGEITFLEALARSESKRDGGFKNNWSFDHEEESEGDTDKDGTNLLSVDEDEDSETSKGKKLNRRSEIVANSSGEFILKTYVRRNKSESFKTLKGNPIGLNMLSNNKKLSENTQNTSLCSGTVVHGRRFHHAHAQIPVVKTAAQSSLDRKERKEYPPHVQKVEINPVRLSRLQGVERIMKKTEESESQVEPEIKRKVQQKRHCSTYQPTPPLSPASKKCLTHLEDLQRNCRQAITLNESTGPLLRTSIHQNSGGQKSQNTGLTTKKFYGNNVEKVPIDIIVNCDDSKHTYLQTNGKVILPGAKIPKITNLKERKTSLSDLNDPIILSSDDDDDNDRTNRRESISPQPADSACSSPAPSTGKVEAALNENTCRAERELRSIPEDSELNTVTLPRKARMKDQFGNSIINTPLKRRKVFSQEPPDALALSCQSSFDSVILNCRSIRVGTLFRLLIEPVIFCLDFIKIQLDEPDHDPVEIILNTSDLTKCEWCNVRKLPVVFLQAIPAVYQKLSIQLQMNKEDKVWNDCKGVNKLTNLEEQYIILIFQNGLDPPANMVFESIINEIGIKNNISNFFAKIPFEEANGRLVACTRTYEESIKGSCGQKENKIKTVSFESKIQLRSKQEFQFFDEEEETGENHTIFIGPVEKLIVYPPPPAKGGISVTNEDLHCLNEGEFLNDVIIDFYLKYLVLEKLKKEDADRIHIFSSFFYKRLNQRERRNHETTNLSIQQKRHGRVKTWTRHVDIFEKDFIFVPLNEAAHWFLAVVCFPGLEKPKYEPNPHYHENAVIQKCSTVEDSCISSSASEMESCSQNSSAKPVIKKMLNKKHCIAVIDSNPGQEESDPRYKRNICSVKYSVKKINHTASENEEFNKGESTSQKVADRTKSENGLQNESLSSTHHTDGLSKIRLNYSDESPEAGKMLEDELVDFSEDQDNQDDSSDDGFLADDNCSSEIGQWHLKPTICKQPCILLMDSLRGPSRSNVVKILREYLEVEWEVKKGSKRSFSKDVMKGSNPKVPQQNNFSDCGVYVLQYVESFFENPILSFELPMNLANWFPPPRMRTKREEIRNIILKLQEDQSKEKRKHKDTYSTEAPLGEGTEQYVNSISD
# Type: functional
Calls of active or inactive are those of the source.
measuredProperty: IC50

Here are 2 compounds together with their reported answers.
O=c1oc(-c2ccco2)nc2sc3c(c12)CCCC3: 35.1 µM (active)
COc1ccc(/N=C(\C)C2=C(O)c3ccccc3C2=O)cc1: 5.08 µM (active)

Report IC50 for each item below.
1. Cc1cc(C)nc(NC(=O)/C=C/c2ccc(Cl)cc2Cl)c1
2. Cc1oc2c(c1C(=O)c1ccccc1)C(=O)C(=O)c1ccccc1-2
3. O=C(Nc1ccc(Cl)cn1)c1ccc(Oc2ccccc2)cc1

1: 3.51 µM (active); 2: 6.87 µM (active); 3: 3.22 µM (active)

Report IC50 for each item below.
1. COc1ccc(-c2cc(-c3cc(C)ccc3O)n[nH]2)cc1
2. COc1ccc(C(=O)Nc2nc3c(s2)Cc2cc(OC)ccc2-3)cc1
3. O=C(Nc1cccs1)Nc1ccc(Br)cc1F

1: 10.3 µM (active); 2: 1.65 µM (active); 3: 86.7 µM (active)

Report IC50 for each item below.
1. O=C(O/N=C1\CCCc2ccccc21)c1ccc(F)cc1
2. CC(/C=C1\SC(=S)N(NS(=O)(=O)c2ccccc2)C1=O)=C\c1ccccc1
3. Cn1c(-c2ccccc2)cc2onc(-c3ccccc3)c2c1=O

1. 2.34 µM (active)
2. 2.64 µM (active)
3. 1.51 µM (active)

----------
# subjectOfTest: Genome polyprotein (dengue virus type 2, UniProt P29990)
# Sequence (P29990 2492-3391 limits assumed): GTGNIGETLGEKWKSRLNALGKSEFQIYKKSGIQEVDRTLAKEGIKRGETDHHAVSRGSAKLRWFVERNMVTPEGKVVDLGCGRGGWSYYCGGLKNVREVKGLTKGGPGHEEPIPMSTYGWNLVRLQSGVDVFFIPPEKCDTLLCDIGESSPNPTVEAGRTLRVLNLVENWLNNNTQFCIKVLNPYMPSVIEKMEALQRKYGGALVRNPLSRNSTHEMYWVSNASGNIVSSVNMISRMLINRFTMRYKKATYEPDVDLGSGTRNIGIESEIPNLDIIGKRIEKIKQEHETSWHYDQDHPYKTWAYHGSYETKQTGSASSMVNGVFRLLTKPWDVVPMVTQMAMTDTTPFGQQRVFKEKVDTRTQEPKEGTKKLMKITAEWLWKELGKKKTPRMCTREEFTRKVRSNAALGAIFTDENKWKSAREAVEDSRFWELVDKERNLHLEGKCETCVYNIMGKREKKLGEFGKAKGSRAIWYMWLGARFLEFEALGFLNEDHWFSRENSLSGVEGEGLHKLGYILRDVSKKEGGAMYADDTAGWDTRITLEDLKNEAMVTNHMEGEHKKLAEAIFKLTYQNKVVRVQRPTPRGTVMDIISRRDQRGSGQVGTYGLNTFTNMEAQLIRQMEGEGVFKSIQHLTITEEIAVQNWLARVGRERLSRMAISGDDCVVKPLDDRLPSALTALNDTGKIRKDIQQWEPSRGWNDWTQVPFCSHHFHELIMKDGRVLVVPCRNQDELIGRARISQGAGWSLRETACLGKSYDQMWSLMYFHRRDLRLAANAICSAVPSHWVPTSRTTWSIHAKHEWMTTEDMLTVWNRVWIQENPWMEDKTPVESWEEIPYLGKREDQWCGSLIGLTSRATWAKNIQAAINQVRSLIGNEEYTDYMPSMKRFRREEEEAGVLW
# assayExplanation: Dengue-2 NS5 methyltransferase inhibitors, primary screen, biochemical, confirmation dose response (AID 588689)
# Type: functional
Calls of active or inactive are those of the source.
measuredProperty: IC50

Here are 5 compounds together with their reported answers.
CN1C(=O)NC(=O)/C(=C/c2ccc([N+](=O)[O-])s2)C1=O: 17.4 µM (active)
CCC(=O)NC1=C(Cl)C(=O)C(NC(=O)CC)=C(Cl)C1=O: 5.19 µM (active)
O=Nc1c(O)ccc2cc(S(=O)(=O)O)ccc12: 45.7 µM (active)
Cc1ccc(S(=O)(=O)N2[C@@H](c3ccc(C(C)(C)C)cc3)C(C(=O)O)=CC[C@H]2c2ccc(Cl)cc2)cc1: 39.6 µM (active)
O=C(O)CN1C(=O)C=CC1=O: > 100 µM (active)

Report IC50 for each item below.
1. Cc1ccc(S(=O)(=O)Nc2ccccc2-c2ccccc2NS(=O)(=O)c2ccc(C)cc2)cc1
2. Cc1ccccc1NC(=O)CSc1nnc(-c2ccco2)c(-c2ccco2)n1

1. 54.8 µM (active)
2. 64.7 µM (active)

Report IC50 for each item below.
1. CC(=O)Oc1c(Br)cc(N(C(C)=O)S(=O)(=O)c2ccccc2)c2ccccc12
2. O=C1C(Cl)=C(N2CCOCC2)C(=O)N1c1ccccc1Cl
3. O=[N+]([O-])c1ccc(-[n+]2ccc3ccccc3c2)c([N+](=O)[O-])c1

1: 49.8 µM (active); 2: 23.3 µM (active); 3: > 100 µM (active)

----------
# subjectOfTest: Fatty acid synthase (Homo sapiens)
# assayExplanation: FAS thioesterase domain inhibitors, dose response, biochemical, endpoint fluorescence intensity, uHTS hits (AID 624327);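 note: fluorescence from hydrolysis of an O-methyl fluorescein acyl ester substrate by the enzyme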
# Type: functional
Calls of active or inactive are those of the source.
measuredProperty: IC50

O=C(Cn1nc(-c2ccco2)ccc1=O)Nc1ccc(Cl)c(Cl)c1: 13.1 µM (active)
COc1ccc(C(=O)OC(C)C(=O)NC(C)CCc2ccccc2)cc1[N+](=O)[O-] (configuration not stated): 19.1 µM (active)
O=C(CCNc1ccc(Br)cc1)c1cccc([N+](=O)[O-])c1: 13.3 µM (active)

Report IC50 for each item below.
1. N#CC1(NC(=O)COC(=O)c2cc([N+](=O)[O-])ccc2N2CCOCC2)CCCCC1
2. CCOC(=O)C1CCN(C(=O)c2ccc3c(=O)n4nc(Nc5ccccc5OC)sc4nc3c2)CC1
3. O=C(C[C@H]1C[C@H](C(=O)N2CCOCC2)[C@@]2(CCC3CCCC3)c3[nH]c4ccc(Cl)cc4c3CCN2C1=O)NCCN1CCOCC1
4. Cc1c(Br)c([N+](=O)[O-])nn1CCCC(=O)N1CCN(c2ccccc2)CC1

3.79 µM (active)
12.4 µM (active)
2.04 µM (active)
11.6 µM (active)

----------
# subjectOfTest: DNA dC->dU-editing enzyme APOBEC-3G (Homo sapiens, UniProt Q9HC16)
# Sequence (Q9HC16 whole entry): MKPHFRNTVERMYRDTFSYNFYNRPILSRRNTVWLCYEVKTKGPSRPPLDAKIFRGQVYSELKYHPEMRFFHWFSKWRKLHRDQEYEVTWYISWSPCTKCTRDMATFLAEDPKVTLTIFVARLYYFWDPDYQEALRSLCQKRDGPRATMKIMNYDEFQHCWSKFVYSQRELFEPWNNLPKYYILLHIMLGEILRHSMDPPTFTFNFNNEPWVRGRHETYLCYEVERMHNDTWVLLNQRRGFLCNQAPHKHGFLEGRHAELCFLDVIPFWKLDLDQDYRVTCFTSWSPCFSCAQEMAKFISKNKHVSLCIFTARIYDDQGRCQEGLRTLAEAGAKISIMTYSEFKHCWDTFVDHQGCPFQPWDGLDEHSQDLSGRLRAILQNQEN
# Type: functional
Calls of active or inactive are those of the source.
measuredProperty: IC50

N#C/C(=C\c1c[nH]c2ccccc12)C(=O)NCC1CCCO1 (stereo not given): 5.05 µM (active)
CCOc1ccc(N(CC(=O)Nc2ccccc2)S(C)(=O)=O)cc1: 4.76 µM (active)
C[n+]1cc(-c2ccccc2)n2c1CCCCC2: 2.3 µM (active)
CCOC(=O)C1CCN(C(=O)Cc2cccc3ccccc23)CC1: 5.83 µM (active)

Turning to the following compound.
For the compound O=C(Nc1ccccc1F)c1ccc(CSc2ncccn2)cc1 , what IC50 is on record?
9.71 µM (active)

----------
Provide the recorded IC50 for the entries that follow.
# subjectOfTest: UniProtKB Q9Y4P1
# Sequence (Q9Y4P1 whole entry): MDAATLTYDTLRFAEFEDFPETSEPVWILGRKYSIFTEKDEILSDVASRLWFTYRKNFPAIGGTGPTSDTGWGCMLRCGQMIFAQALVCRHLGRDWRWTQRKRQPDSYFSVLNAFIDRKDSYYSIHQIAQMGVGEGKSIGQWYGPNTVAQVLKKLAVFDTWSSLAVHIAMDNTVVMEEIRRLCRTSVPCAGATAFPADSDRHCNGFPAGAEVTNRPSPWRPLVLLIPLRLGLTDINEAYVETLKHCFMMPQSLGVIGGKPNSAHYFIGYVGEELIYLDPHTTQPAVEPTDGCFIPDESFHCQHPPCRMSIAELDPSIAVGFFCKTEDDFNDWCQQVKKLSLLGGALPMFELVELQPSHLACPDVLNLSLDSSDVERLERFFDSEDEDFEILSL
# Type: functional
Calls of active or inactive are those of the source.

Here are 3 molecules together with their reported answers.
CC1CCc2sc(C(=O)N3CCC(C(N)=O)CC3)cc2C1 (centres undefined): 13.2 µM (active)
CC(/C=C1\SC(=S)N(NS(=O)(=O)c2ccccc2)C1=O)=C\c1ccccc1: 12 µM (active)
O=C(CN1C(=O)/C(=C/c2ccco2)SC1=S)Nc1ccc(C(=O)O)c(O)c1: 6.89 µM (active)

Turning to the following molecule.
For the molecule CCCCCCCCCCCCCCC(O)C[N+](C)(CCO)CCO (centres undefined) , what IC50 is on record?
8.23 µM (active)

----------
# subjectOfTest: UniProt P11940
# Sequence (P11940 whole entry): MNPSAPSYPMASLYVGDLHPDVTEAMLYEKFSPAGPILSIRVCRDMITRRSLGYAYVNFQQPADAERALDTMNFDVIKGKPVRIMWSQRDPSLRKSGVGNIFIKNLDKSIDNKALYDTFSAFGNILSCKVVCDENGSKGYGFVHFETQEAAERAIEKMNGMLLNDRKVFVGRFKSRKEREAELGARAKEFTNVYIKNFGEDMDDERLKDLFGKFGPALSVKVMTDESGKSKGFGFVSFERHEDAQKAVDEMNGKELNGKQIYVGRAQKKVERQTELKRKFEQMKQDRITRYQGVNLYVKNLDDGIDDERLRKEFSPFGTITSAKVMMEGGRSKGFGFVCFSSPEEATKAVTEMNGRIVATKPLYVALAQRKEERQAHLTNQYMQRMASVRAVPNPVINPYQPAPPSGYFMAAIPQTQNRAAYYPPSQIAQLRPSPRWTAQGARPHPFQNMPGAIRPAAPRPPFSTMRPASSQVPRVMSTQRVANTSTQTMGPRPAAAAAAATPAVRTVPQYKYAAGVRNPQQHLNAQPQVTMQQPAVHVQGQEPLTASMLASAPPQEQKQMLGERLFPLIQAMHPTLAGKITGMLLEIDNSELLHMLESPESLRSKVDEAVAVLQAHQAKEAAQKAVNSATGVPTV
# assayExplanation: PABP1 MLLE–PAM2 binding inhibitor potency, dose response, biochemical, fluorescence polarization, FITC-PAM2 peptide (AID 602259)
# Assay type: functional
# reportedConditions: read-out: IC50_Mean
The source made the active and inactive calls.
Respond with a class label; see true (1) for active, false (0) for inactive

Cc1ccc2ncccc2c1NC(=S)NC(=O)c1ccccc1: false (0)
NC(=NOC(=O)CSc1ccccc1)c1ccc([N+](=O)[O-])cc1: false (0)
COc1cc(C(=O)NC2=NCCS2)ccc1OCc1c(C)noc1C: false (0)
Cc1cccn2c(=O)c3cc(C(=O)NCc4ccco4)c(=N)n(CCOCCO)c3nc12: true (1)

What classification did CC1(C)Cc2c(c(-c3ccco3)[nH]c(=O)c2C#N)CS1 end up with in this test?
false (0)
